# measurement target: HLA-A*30:01
# protocol notes: IEDB peptide-MHC binding, purified MHC/competitive/radioactivity; filed as Kd, often an IC50 or EC50 that approximates it; bounds were set here for any values at or beyond the usual limits of such assays
# experimental conditions: source organism: Dengue virus 4 Philippines/H241/1956
value kind: pKd
Please express pKd as -log10 of the molar concentration.

Problem: # get_value(readout='pKd', item= QAERTGEPDY )
Result: 5.21

Problem: Another sequence: VKVLRPTPKG
Result: 5.03

Problem: Another sequence: MTLMKGASK
Result: 5.82

###

# measurement target: HLA-A*03:01
# protocol notes: IEDB peptide-MHC binding, purified MHC/direct/fluorescence; filed as Kd, often an IC50 or EC50 that approximates it; bounds were set here for any values at or beyond the usual limits of such assays
# experimental conditions: source organism: Vibrio vulnificus CMCP6
value kind: Kd

Problem: # get_value(readout='Kd', item= MPIAAAIGT )
Result: ≥ 20 µM

###

# measurement target: HLA-A*02:01
# protocol notes: IEDB peptide-MHC binding, cellular MHC/competitive/fluorescence; bounds were set here for any values at or beyond the usual limits of such assays
# experimental conditions: source organism: Human papillomavirus 16
value kind: IC50 (nM)
Value expressed in nM; do not type the unit.

Problem: # get_value(readout='IC50', item= LGIVCPI )
Result: 700

###

Consider the following sequences and their measured IC50 readings.
# measurement target: HLA-A*01:01
# protocol notes: IEDB peptide-MHC binding, purified MHC/competitive/fluorescence; bounds were set here for any values at or beyond the usual limits of such assays
# experimental conditions: source organism: Zaire ebolavirus
Value expressed in µM; do not type the unit.

Problem: # get_value(readout='IC50', item= GSYGEYQSY )
Result: 9.91

Now look at this one.
Problem: # get_value(readout='IC50', item= NSTHNTPVY )
Result: 29.1

###

# measurement target: HLA-A*26:01
# protocol notes: IEDB peptide-MHC binding, purified MHC/direct/fluorescence; filed as Kd, often an IC50 or EC50 that approximates it; bounds were set here for any values at or beyond the usual limits of such assays
# experimental conditions: source organism: Escherichia coli O157:H7 str. EDL933
value kind: Kd (nM)
Value expressed in nM; do not type the unit.

Problem: # get_value(readout='Kd', item= FTHREQLFM )
Result: 59

###

# measurement target: HLA-B*57:01
# protocol notes: IEDB peptide-MHC binding, purified MHC/direct/fluorescence; filed as Kd, often an IC50 or EC50 that approximates it; bounds were set here for any values at or beyond the usual limits of such assays
# experimental conditions: source organism: Yellow fever virus
pKd: −log10 of the molar value.
value kind: pKd

Problem: # get_value(readout='pKd', item= ERWFVRNPF )
Result: ≤ 4.70

###

# measurement target: HLA-A*33:01
# protocol notes: IEDB peptide-MHC binding, purified MHC/competitive/radioactivity; filed as Kd, often an IC50 or EC50 that approximates it; bounds were set here for any values at or beyond the usual limits of such assays
# experimental conditions: source organism: Hepacivirus hominis
value kind: Kd

Problem: # get_value(readout='Kd', item= HSKRKCDEL )
Result: ≥ 77.7 µM

###

# measurement target: HLA-B*08:01
# protocol notes: IEDB peptide-MHC binding, purified MHC/direct/fluorescence; filed as Kd, often an IC50 or EC50 that approximates it; bounds were set here for any values at or beyond the usual limits of such assays
# experimental conditions: source organism: Pseudomonas putida
value kind: Kd

Problem: # get_value(readout='Kd', item= NWDWGVFFK )
Result: ≥ 20 µM

###

# measurement target: HLA-A*02:19
# protocol notes: IEDB peptide-MHC binding, purified MHC/competitive/fluorescence; filed as Kd, often an IC50 or EC50 that approximates it; bounds were set here for any values at or beyond the usual limits of such assays
# experimental conditions: source organism: Giardia lamblia ATCC 50803
pKd: −log10 of the molar value.
value kind: pKd

Problem: # get_value(readout='pKd', item= KVSWRWMVY )
Result: ≤ 4.70

###

# measurement target: HLA-A*03:01
# protocol notes: IEDB peptide-MHC binding, purified MHC/direct/fluorescence; filed as Kd, often an IC50 or EC50 that approximates it; bounds were set here for any values at or beyond the usual limits of such assays
# experimental conditions: source organism: Salmonella enterica
value kind: Kd

Problem: # get_value(readout='Kd', item= QTDDGVRFT )
Result: ≥ 20 µM

Now look at this one.
Problem: # get_value(readout='Kd', item= RSWQPPQPR )
Result: ≥ 20 µM

###

# measurement target: HLA-B*07:02
# protocol notes: IEDB peptide-MHC binding, purified MHC/direct/fluorescence; filed as Kd, often an IC50 or EC50 that approximates it; bounds were set here for any values at or beyond the usual limits of such assays
# experimental conditions: source organism: Francisella tularensis subsp. holarctica LVS
value kind: Kd

Problem: # get_value(readout='Kd', item= REMGIVDLL )
Result: ≥ 20 µM

###

# measurement target: HLA-C*05:01
# protocol notes: IEDB peptide-MHC binding, purified MHC/direct/fluorescence; filed as Kd, often an IC50 or EC50 that approximates it; bounds were set here for any values at or beyond the usual limits of such assays
# experimental conditions: source organism: Burkholderia pseudomallei 1710b
value kind: pKd
Please express pKd as -log10 of the molar concentration.

Problem: # get_value(readout='pKd', item= KTADVTVVF )
Result: 7.22

###

# measurement target: HLA-B*18:01
# protocol notes: IEDB peptide-MHC binding, purified MHC/competitive/fluorescence; filed as Kd, often an IC50 or EC50 that approximates it; bounds were set here for any values at or beyond the usual limits of such assays
# experimental conditions: source organism: Orthohantavirus andesense
pKd: −log10 of the molar value.
value kind: pKd

Problem: # value lookup — system HLA-B*18:01, readout pKd, item VWKQLFPEL
Result: ≤ 4.70

###

Consider the following sequences and their measured pKd readings.
# measurement target: HLA-A*02:06
# protocol notes: IEDB peptide-MHC binding, purified MHC/competitive/fluorescence; filed as Kd, often an IC50 or EC50 that approximates it; bounds were set here for any values at or beyond the usual limits of such assays
# experimental conditions: source organism: Human immunodeficiency virus 1
Please express pKd as -log10 of the molar concentration.

Problem: # get_value(readout='pKd', item= EELRSLFNTV )
Result: 6.52

Problem: Another sequence: EELRSLFNTI
Result: 5.94

Problem: Another sequence: EKLKSLFNTI
Result: 8.74

###

# measurement target: HLA-A*26:01
# protocol notes: IEDB peptide-MHC binding, purified MHC/direct/fluorescence; filed as Kd, often an IC50 or EC50 that approximates it; bounds were set here for any values at or beyond the usual limits of such assays
# experimental conditions: source organism: Vibrio vulnificus
pKd: −log10 of the molar value.
value kind: pKd

Problem: # get_value(readout='pKd', item= STDTRHIPQ )
Result: ≤ 4.70

###

# measurement target: HLA-B*08:02
# protocol notes: IEDB peptide-MHC binding, purified MHC/direct/fluorescence; filed as Kd, often an IC50 or EC50 that approximates it; bounds were set here for any values at or beyond the usual limits of such assays
# experimental conditions: source organism: Influenza A virus (A/Quail/Shanghai/8/96(H9N2))
value kind: Kd

Problem: # get_value(readout='Kd', item= LVGGREWSY )
Result: ≥ 20 µM

###

# measurement target: HLA-A*31:01
# protocol notes: IEDB peptide-MHC binding, purified MHC/direct/fluorescence; filed as Kd, often an IC50 or EC50 that approximates it; bounds were set here for any values at or beyond the usual limits of such assays
# experimental conditions: source organism: Ebola virus - Mayinga, Zaire, 1976
value kind: Kd

Problem: # get_value(readout='Kd', item= FIYFGKKQY )
Result: ≥ 20 µM

###

# measurement target: HLA-A*31:01
# protocol notes: IEDB peptide-MHC binding, purified MHC/direct/fluorescence; filed as Kd, often an IC50 or EC50 that approximates it; bounds were set here for any values at or beyond the usual limits of such assays
# experimental conditions: source organism: West Nile virus
pKd: −log10 of the molar value.
value kind: pKd

Problem: # get_value(readout='pKd', item= LYAVTTAVL )
Result: ≤ 4.70

###

# measurement target: HLA-B*15:01
# protocol notes: IEDB peptide-MHC binding, purified MHC/direct/fluorescence; filed as Kd, often an IC50 or EC50 that approximates it; bounds were set here for any values at or beyond the usual limits of such assays
# experimental conditions: source organism: Rickettsia canadensis
value kind: Kd

Problem: # value lookup — system HLA-B*15:01, readout Kd, item SSEADCFTY
Result: ≥ 20 µM

###

Consider the following sequences and their measured pKd readings.
# measurement target: HLA-B*51:01
# protocol notes: IEDB peptide-MHC binding, purified MHC/competitive/radioactivity; filed as Kd, often an IC50 or EC50 that approximates it; bounds were set here for any values at or beyond the usual limits of such assays
# experimental conditions: source organism: Vaccinia virus WR
pKd: −log10 of the molar value.

Worked set:
Problem: # get_value(readout='pKd', item= IVLFQRFLR )
Result: ≤ 4.11

Problem: Another sequence: KPVSDLYTSM
Result: ≤ 4.16

Problem: Another sequence: LPESDLDKVY
Result: ≤ 4.27

Problem: Another sequence: SPEGEETII
Result: 4.80

Problem: Another sequence: YPDLNFDNTY
Result: ≤ 4.16

Now look at this one.
Problem: # get_value(readout='pKd', item= YPSMFTLRHI )
Result: 8.59
